Target: EGFR wildtype (Homo sapiens, UniProt P00533)
Sequence (P00533 25-1210): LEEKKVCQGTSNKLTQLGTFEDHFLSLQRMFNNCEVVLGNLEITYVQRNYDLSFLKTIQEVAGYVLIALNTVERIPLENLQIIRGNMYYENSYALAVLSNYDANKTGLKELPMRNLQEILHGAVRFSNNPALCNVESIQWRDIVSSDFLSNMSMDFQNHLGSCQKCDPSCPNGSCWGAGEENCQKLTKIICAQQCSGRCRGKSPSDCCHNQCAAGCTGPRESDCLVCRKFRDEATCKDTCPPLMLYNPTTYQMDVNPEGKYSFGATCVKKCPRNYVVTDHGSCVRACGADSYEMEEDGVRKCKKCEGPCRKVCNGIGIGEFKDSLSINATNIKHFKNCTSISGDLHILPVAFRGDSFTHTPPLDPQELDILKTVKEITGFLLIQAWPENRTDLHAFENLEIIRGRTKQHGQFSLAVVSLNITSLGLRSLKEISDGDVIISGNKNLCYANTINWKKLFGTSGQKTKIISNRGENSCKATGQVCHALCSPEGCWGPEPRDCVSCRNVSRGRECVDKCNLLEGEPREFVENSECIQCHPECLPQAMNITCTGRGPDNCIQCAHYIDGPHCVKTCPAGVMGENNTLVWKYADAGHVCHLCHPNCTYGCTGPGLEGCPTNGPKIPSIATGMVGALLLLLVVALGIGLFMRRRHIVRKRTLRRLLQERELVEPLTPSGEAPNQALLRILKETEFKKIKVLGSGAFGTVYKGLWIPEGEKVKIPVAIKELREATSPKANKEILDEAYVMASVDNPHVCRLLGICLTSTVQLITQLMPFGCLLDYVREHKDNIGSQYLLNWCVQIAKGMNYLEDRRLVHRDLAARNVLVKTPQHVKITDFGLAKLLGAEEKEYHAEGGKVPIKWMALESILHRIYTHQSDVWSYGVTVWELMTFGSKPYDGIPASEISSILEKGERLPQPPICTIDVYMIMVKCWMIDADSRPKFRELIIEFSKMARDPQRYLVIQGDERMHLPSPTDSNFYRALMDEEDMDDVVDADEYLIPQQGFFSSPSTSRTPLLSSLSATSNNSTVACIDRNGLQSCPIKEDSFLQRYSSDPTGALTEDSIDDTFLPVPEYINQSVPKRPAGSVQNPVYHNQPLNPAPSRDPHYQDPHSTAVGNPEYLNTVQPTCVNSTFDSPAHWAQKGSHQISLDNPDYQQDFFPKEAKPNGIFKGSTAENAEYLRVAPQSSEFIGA
Assay: Biochemical EGFR kinase assay (Lance Ultra TR-FRET), wildtype
Conditions: Km ATP; read-out: IC50 WT (nM) Km ATP
readout: IC50 (nM)

Examples with their reported IC50 follow.
- smiles input: "CN1CCN(Cc2ccc(-c3cnc(Nc4ccnc(-c5cnn(S(=O)(=O)C6CC6)c5)n4)cc3N3CCC(C)(CO)CC3)nc2)CC1"
  target entity: "EGFR wildtype (Homo sapiens, UniProt P00533)"
  readout: "IC50"
  units text: "nM"
  obs value: 212
- smiles input: "CN(C)C[C@H]1CC[C@@H](Nc2cc(Nc3ccnc(-c4cnn(S(=O)(=O)C5CC5)c4)n3)ncc2-c2cc(C(C)(C)O)ccn2)CC1"
  target entity: "EGFR wildtype (Homo sapiens, UniProt P00533)"
  readout: "IC50"
  units text: "nM"
  obs value: 0.9
- smiles input: "C[C@]1(O)CC[C@@H](Nc2cc(Nc3ccnc(-c4cnn(S(=O)(=O)C5CC5)c4)n3)ncc2-c2cnc(CO)cn2)CC1"
  target entity: "EGFR wildtype (Homo sapiens, UniProt P00533)"
  readout: "IC50"
  units text: "nM"
  obs value: 6.8
- smiles input: "C[C@]1(O)CC[C@@H](Nc2cc(Nc3ccnc(-c4cnn(S(=O)(=O)C5CC5)c4)n3)ncc2-c2ccc(N3CCCC3)cn2)CC1"
  target entity: "EGFR wildtype (Homo sapiens, UniProt P00533)"
  readout: "IC50"
  units text: "nM"
  obs value: 11.4

[A] CN(C)c1ccc(-c2cnc(Nc3ccnc(-c4cnn(S(=O)(=O)C5CC5)c4)n3)cc2N[C@H]2CC[C@@](C)(O)CC2)nc1
[B] C[C@]1(O)CC[C@@H](Nc2cc(Nc3ccnc(-c4cnn(S(=O)(=O)C5CC5)c4)n3)ncc2-c2ccc(CN3CCC(F)(F)CC3)cn2)CC1
Ask | Endpoint returns whichever of A and B has the numerically higher IC50. Respond with the label that goes with your answer.
Reply | B
(B: 7.9 nM, A: 5 nM)

* * *

Molecular target: EGFR del19/C797S (Homo sapiens, UniProt P00533, C797S/DEL746-750)
Sequence (P00533 with tags, fused parts or gaps DEL746-750/C797S): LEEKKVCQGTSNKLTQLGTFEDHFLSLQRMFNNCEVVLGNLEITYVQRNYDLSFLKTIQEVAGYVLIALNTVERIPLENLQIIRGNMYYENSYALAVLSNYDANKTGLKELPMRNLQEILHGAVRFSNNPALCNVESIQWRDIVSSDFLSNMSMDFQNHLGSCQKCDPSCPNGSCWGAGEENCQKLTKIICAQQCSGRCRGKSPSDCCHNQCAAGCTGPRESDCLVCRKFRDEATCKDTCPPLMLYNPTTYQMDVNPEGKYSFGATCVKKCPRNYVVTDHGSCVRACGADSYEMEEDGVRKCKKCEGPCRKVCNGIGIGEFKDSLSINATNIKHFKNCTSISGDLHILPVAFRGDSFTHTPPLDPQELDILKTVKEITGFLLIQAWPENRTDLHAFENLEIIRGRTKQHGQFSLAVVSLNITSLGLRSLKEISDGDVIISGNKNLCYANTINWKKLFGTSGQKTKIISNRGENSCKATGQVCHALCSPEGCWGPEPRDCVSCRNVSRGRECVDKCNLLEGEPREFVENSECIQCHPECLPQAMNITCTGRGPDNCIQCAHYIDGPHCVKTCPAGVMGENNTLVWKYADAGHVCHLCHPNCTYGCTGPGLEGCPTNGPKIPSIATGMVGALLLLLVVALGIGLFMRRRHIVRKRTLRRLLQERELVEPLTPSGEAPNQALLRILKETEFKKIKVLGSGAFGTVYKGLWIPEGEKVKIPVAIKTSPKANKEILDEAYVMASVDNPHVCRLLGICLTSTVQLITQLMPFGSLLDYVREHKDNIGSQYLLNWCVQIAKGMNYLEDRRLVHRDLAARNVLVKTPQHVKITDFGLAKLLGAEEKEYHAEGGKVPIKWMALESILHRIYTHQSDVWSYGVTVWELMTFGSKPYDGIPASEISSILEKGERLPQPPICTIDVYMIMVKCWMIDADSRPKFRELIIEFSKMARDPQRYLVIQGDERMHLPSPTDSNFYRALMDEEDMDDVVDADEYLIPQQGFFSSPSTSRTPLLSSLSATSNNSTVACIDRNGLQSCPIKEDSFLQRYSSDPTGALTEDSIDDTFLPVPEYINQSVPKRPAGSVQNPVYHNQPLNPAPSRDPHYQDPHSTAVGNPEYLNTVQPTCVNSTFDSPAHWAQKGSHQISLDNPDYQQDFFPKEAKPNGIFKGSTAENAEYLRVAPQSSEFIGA
Assay: Biochemical EGFR kinase assay (Lance Ultra TR-FRET), double mutant del19/C797S
Settings: Km ATP; read-out: IC50 del19/C797S (nM) Km ATP
readout: IC50 (nM)

- compound: "O=S(=O)(C1CC1)n1cc(-c2nccc(Nc3cc(N[C@H]4CC[C@@H](CO)CC4)c(-c4ccc(N5CCCC5)cn4)cn3)n2)cn1"
  IC50, nM: 4

[a] CN1CCN(c2ccc(-c3cnc(Nc4ccnc(-c5cnn(S(=O)(=O)C6CC6)c5)n4)cc3N[C@H]3CC[C@@H](CO)CC3)nc2)CC1
[b] C[C@]1(O)CC[C@@H](Nc2cc(Nc3ccnc(-c4cnn(S(=O)(=O)C5CC5)c4)n3)ncc2-c2ccc(N3CC4(COC4)C3)nn2)CC1
[c] COC1CN(c2ccc(-c3cnc(Nc4ccnc(-c5cnn(S(=O)(=O)C6CC6)c5)n4)cc3N[C@H]3CC[C@@H](CO)CC3)nc2)C1
Ask | Arrange the 3 compounds from largest to smallest IC50. Output spec: labels arranged per the requested ranking.
Reply | c, b, a

[I] CN1CCC(Oc2cnc(-c3cnc(Nc4ccnc(-c5cnn(S(=O)(=O)C6CC6)c5)n4)cc3N[C@H]3CC[C@@H](C(C)(C)O)CC3)cn2)CC1
[II] CN(C)Cc1ccc(-c2cnc(Nc3ccnc(-c4cnn(S(=O)(=O)C5CC5)c4)n3)cc2N[C@H]2CC[C@@](C)(O)CC2)nc1
Ask | Lowest IC50? choose I or II Respond with the label that goes with your answer.
Reply | II
(II: 0.1 nM, I: 0.4 nM)

[1] C[C@]1(O)CC[C@@H](Nc2cc(Nc3ccnc(-c4cnn(S(=O)(=O)C5CC5)c4)n3)ncc2-c2ccc(CN3CCOCC3)cn2)CC1
[2] CN1CCC(Oc2ccc(-c3cnc(Nc4ccnc(-c5cnn(S(=O)(=O)C6CC6)c5)n4)cc3NC3CCC(F)(F)C3)nc2)CC1 (stereo not shown)
[3] O=S(=O)(C1CC1)n1cc(-c2nccc(Nc3cc(N[C@H]4CC[C@@H](F)CC4)c(-c4ccc(CN5CCOCC5)cn4)cn3)n2)cn1
[4] COc1c(F)ccnc1-c1cnc(Nc2ccnc(-c3cnn(S(=O)(=O)C4CC4)c3)n2)cc1N[C@H]1CC[C@@](C)(O)CC1
[5] O=S(=O)(C1CC1)n1cc(-c2nccc(Nc3cc(N[C@H]4CC[C@@H](CO)CC4)c(-c4ccc(N5CCC(F)(F)CC5)nn4)cn3)n2)cn1
Ask | Sort (5 compounds) by IC50: min first. Output spec: labels arranged per the requested ranking.
Reply | 1, 2, 5, 3, 4

[a] CN1CCC(Oc2ccc(-c3cnc(Nc4ccnc(-c5cnn(CC(F)F)c5)n4)cc3NC3CCCC(F)C3)nc2)CC1 (stereo not shown)
[b] O=S(=O)(C1CC1)n1cc(-c2nccc(Nc3cc(N[C@H]4CC[C@@H](CCO)CC4)c(-c4cc(C(F)F)ccn4)cn3)n2)cn1
[c] O=S(=O)(C1CC1)n1cc(-c2nccc(Nc3cc(N[C@H]4CC[C@@H](CO)CC4)c(-c4cc(CN5CCC(F)(F)CC5)ccn4)cn3)n2)cn1
[d] CN(C)C[C@H]1CC[C@@H](Nc2cc(Nc3ccnc(-c4cnn(S(=O)(=O)C5CC5)c4)n3)ncc2-c2ccc(N3CCC(F)(F)CC3)nn2)CC1
[e] O=S(=O)(C1CC1)n1cc(-c2nccc(Nc3cc(N[C@H]4CC[C@@H](CO)CC4)c(-c4ccc(CO)cn4)cn3)n2)cn1
Ask | Arrange the 5 compounds from largest to smallest IC50. Output spec: labels arranged per the requested ranking.
Reply | c, b, a, d, e

[I] CN(C)CCOc1cnc(-c2cnc(Nc3ccnc(-c4cnn(S(=O)(=O)C5CC5)c4)n3)cc2N[C@H]2CC[C@@H](C(C)(C)O)CC2)cn1
[II] C[C@]1(O)CC[C@@H](Nc2cc(Nc3ccnc(-c4cnn(S(=O)(=O)C5CC5)c4)n3)ncc2-c2cnc(N3CCC(F)(F)CC3)cn2)CC1
Ask | Endpoint returns whichever of I and II has the numerically higher IC50. Respond with the label that goes with your answer.
Reply | II

[1] O=S(=O)(C1CC1)n1cc(-c2nccc(Nc3cc(N[C@H]4CC[C@](O)(CO)CC4)c(-c4ccccn4)cn3)n2)cn1
[2] Cc1ccc(-c2cnc(Nc3ccnc(-c4cnn(S(=O)(=O)C5CC5)c4)n3)cc2N[C@H]2CC[C@@](C)(O)CC2)nc1
[3] C[C@]1(O)CC[C@@H](Nc2cc(Nc3ccnc(-c4cnn(S(=O)(=O)C5CC5)c4)n3)ncc2-c2cnc(C(F)(F)F)cn2)CC1
[4] COC1CN(c2ccc(-c3cnc(Nc4ccnc(-c5cnn(S(=O)(=O)C6CC6)c5)n4)cc3N[C@H]3CC[C@@H](C(C)(C)O)CC3)nc2)C1
[5] CC(C)(O)[C@H]1CC[C@@H](Nc2cc(Nc3ccnc(-c4cnn(S(=O)(=O)C5CC5)c4)n3)ncc2-c2cc(C(F)F)ccn2)CC1
Ask | Sort (5 compounds) by IC50: min first. Output spec: labels arranged per the requested ranking.
Reply | 2, 1, 4, 5, 3
(2: 0.4 nM, 1: 0.7 nM, 4: 4.4 nM, 5: 8.8 nM, 3: 32.1 nM)

* * *

Biological target: EGFR del19/C797S (Homo sapiens, UniProt P00533, C797S/DEL746-750)
Experiment: Biochemical EGFR kinase assay (Lance Ultra TR-FRET), double mutant del19/C797S
Settings: IC50 del19/C797S, 100 μM ATP
pIC50: −log10 of the molar value.
readout: pIC50

[A] CC(C)(O)[C@H]1CC[C@@H](Nc2cc(Nc3ccnc(-c4cnn(S(=O)(=O)C5CC5)c4)n3)ncc2-c2ccc(S(C)(=O)=O)cn2)CC1
[B] CC1(O)CCC(Nc2cc(Nc3ccnc(-c4cnn(S(=O)(=O)C5CC5)c4)n3)ncc2-c2ccc(C(C)(O)C(F)(F)F)cn2)CC1 (stereo not drawn)
Ask | Lowest pIC50? choose A or B Respond with the label that goes with your answer.
Reply | B
(B: 8.22, A: 8.89)

* * *

Molecular target: EGFR L858R/C797S (Homo sapiens, UniProt P00533, C797S/L858R)
Sequence (P00533 25-1210 C797S/L858R): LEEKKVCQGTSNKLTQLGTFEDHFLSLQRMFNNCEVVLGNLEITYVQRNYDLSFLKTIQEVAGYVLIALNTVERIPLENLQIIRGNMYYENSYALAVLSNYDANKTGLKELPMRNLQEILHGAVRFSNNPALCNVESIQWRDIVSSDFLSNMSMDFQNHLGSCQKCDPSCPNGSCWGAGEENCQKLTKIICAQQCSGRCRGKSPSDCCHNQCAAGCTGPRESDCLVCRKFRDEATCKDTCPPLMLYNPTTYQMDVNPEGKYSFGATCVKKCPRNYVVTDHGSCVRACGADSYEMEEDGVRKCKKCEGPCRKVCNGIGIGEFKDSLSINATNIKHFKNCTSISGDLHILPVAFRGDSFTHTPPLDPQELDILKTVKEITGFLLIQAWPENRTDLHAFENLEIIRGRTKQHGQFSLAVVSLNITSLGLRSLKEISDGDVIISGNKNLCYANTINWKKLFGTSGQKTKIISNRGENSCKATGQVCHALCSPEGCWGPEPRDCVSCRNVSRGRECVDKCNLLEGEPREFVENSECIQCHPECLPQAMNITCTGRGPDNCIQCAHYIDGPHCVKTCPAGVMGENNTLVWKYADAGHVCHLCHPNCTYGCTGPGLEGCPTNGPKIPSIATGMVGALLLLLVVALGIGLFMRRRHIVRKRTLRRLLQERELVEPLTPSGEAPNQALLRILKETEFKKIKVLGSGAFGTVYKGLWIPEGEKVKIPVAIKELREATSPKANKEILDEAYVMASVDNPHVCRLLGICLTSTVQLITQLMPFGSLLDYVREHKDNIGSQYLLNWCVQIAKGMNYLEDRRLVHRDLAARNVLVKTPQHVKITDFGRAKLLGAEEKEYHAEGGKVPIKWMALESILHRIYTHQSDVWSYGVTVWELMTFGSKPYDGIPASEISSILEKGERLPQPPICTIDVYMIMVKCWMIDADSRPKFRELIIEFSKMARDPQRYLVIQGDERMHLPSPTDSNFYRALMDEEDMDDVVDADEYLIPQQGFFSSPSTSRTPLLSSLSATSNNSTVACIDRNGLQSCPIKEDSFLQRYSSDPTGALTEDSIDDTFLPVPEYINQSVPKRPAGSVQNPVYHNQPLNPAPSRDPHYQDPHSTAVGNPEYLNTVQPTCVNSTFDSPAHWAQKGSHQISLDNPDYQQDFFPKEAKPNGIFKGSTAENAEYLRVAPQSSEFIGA
Test: Biochemical EGFR kinase assay (Lance Ultra TR-FRET), double mutant L858R/C797S
Settings: ATP at Km; read-out: IC50 L858R/C797S, Km ATP
pIC50: −log10 of the molar value.
readout: pIC50

- smiles input: "O=S(=O)(C1CC1)n1cc(-c2nccc(Nc3cc(N[C@H]4CC[C@@H](F)CC4)c(-c4cnc(OC5CCOCC5)cn4)cn3)n2)cn1"
  target entity: "EGFR L858R/C797S (Homo sapiens, UniProt P00533, C797S/L858R)"
  readout: "pIC50"
  obs value: 7.76

[a] O=S(=O)(C1CC1)n1cc(-c2nccc(Nc3cc(N[C@H]4CC[C@@H](CO)CC4)c(-c4ccc(CC(F)(F)F)cn4)cn3)n2)cn1
[b] C[C@]1(O)CC[C@@H](Nc2cc(Nc3ccnc(-c4cnn(S(=O)(=O)C5CC5)c4)n3)ncc2-c2cccc(CC(F)(F)F)n2)CC1
Ask | Endpoint returns whichever of a and b has the numerically higher pIC50. Respond with the label that goes with your answer.
Reply | a
(a: 8.54, b: 7.81)
